Molecular target: T1, mouse MuSK (mouse, UniProt Q61006 22-494, limits assumed)
T1 construct: Coated on ELISA plates or on the Biacore chip; also called full length mouse MuSK; mouse MuSK (in house produced in HEK293 cells)
T1 sequence (looked up): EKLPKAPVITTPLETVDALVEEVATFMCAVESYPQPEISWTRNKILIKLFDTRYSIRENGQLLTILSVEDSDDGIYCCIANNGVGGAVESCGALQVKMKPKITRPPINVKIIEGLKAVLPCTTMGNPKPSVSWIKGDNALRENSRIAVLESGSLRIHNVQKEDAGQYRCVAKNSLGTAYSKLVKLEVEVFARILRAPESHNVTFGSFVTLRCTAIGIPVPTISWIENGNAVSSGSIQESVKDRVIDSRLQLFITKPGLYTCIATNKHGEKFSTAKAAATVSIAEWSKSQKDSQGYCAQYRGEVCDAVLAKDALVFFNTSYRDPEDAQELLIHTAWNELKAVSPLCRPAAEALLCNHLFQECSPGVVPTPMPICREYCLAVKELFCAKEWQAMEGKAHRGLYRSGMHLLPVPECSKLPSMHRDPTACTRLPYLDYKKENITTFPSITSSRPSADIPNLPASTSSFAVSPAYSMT
Experiment: Biacore T200, MuSK on chip (200RU), 22.2 nM Fab, dissociation pH 7.4
Response field label: string, one of 1 (yes) (koff strictly below 0.003 s⁻¹) or 0 (no).

X2m4 Fab (Fab, V domains shown, Fab format) VH: EVQLVESGGGLVQPGGSLRLSCAASGFTVSSSSIHWVRQAPGKGLEWVASISSSYGSTSYADSVKGRFTISADTSKNTAYLQMNSLRAEDTAVYYCARSEGDRYVSGYSGLDYWGQGTLVTVSS VL: DIQMTQSPSSLSASVGDRVTITCRASQSVSSAVAWYQQKPGKAPKLLIYSASSLYSGVPSRFSGSRSGTDFTLTISSLQPEDFATYYCQQSGVWLITFGQGTKVEIK    0 (no)
3B2g2m1 Fab (Fab, V domains shown, Fab format) VH: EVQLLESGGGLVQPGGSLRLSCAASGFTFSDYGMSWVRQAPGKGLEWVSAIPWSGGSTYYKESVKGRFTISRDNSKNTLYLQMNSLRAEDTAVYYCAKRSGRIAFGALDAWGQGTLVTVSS VL: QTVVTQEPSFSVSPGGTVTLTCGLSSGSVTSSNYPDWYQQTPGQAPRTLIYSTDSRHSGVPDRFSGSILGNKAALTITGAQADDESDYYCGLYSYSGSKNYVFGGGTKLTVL    0 (no)
X3 Fab (Fab, V domains shown, Fab format) VH: EVQLVESGGGLVQPGGSLRLSCAASGFTISSSSIHWVRQAPGKGLEWVASISSSSGYTYYADSVKGRFTISADTSKNTAYLQMNSLRAEDTAVYYCARSWYEMWMSGYFGFDYWGQGTLVTVSS VL: DIQMTQSPSSLSASVGDRVTITCRASQSVSSAVAWYQQKPGKAPKLLIYSASSLYSGVPSRFSGSRSGTDFTLTISSLQPEDFATYYCQQSSSSLITFGQGTKVEIK    0 (no)
X17 Fab (Fab, V domains shown, Fab format) VH: EVQLVESGGGLVQPGGSLRLSCAASGFTISYSSIHWVRQAPGKGLEWVASIYSSSGSTYYADSVKGRFTISADTSKNTAYLQMNSLRAEDTAVYYCARGDHGYYVFGYLGMDYWGQGTLVTVSS VL: DIQMTQSPSSLSASVGDRVTITCRASQSVSSAVAWYQQKPGKAPKLLIYSASSLYSGVPSRFSGSRSGTDFTLTISSLQPEDFATYYCQQSYKPGALITFGQGTKVEIK    1 (yes)

Prompt line: Hello, I'm reviewing records and need to know if koff of X2 Fab (Fab, V domains shown, Fab format) VH: EVQLVESGGGLVQPGGSLRLSCAASGFTVSSSSIHWVRQAPGKGLEWVASISSSYGSTSYADSVKGRFTISADTSKNTAYLQMNSLRAEDTAVYYCARSEGDRYVSGYMGMDYWGQGTLVTVSS VL: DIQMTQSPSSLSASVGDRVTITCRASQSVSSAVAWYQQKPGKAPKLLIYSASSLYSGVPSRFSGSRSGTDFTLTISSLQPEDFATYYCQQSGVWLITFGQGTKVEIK is below 0.003 s⁻¹. Could you check?
Response line: 1 (yes)

Prompt line: Report whether reported koff is lower than 0.003 s⁻¹ (strictly) for X9 Fab (Fab, V domains shown, Fab format) VH: EVQLVESGGGLVQPGGSLRLSCAASGFTFSSSSIHWVRQAPGKGLEWVASIYSSSGSTYYADSVKGRFTISADTSKNTAYLQMNSLRAEDTAVYYCARSGGEFYITSYYGMDYWGQGTLVTVSS VL: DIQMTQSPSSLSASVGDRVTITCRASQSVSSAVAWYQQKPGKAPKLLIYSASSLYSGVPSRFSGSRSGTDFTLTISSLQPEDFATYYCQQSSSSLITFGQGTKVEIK
Response line: 1 (yes)
